For each of the sequences below, state its protein stability index.
test: protein stability index of a GFP-peptide fusion (GPS, HEK-293T) (PSI 1-6); higher = more stable; settings: treatment: DMSO; c terminus: a fixed tail appended;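 note: 24-mer peptide tiles fused after GFP, lentivirally expressed, FACS-sorted into six equal bins by GFP/DsRed ratio, decoded by Illumina sequencing, PSI is the read-weighted mean bin number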
Answers are plain numbers.

// for each sequence below, give its protein stability index
1. KLEEVVNKKHGEAEKKKPKTQIVC [ZC3H15]
2. TEPETAPTTEPETEPEDDRGPVVP [GNAS]
3. PPLSGALASITETIQVHRRYWRSL [HDAC6]
4. IQLGVTPPGYSAWIKEEAAERYLY [SLC6A17]
5. FQKTKNLLTGETEADPEMIKRAED [CLPTM1]

1. 4.64
2. 5.61
3. 2.99
4. 2.31
5. 5.01

Required: protein stability index, one value per sequence below.
1. GRNHTPFLGHHSFSVRPGTEATIS [SCNN1D]
2. QKLYVRLFQRKLSWIKMTKLEYEE [FAN1]

1: 3.65; 2: 2.63

====

Kindly supply the reported protein stability index values for the records listed here.
test: protein stability index of a GFP-peptide fusion (GPS, HEK-293T) (PSI 1-6); higher = more stable; settings: treatment: DMSO; c terminus: a fixed tail appended

// below: answered sequences
sequence.content	protein stability index
LVELLQPFKQVAEMLSASRYPTIS [ZBED1]	2.65
RTARALLDRDALKQSLVVAVQDHG [PCDHGA10]	3.72
FSALYWFNYELVKSWLNGFRPKDQ [SLC25A39]	2.2
DLEVDMNKTEVTPRLWTTCRDGEV [ACSBG2]	3.96

Respectfully, I request protein stability index for each entry included below.
1. PTKADTEKWAEGGGHSRERADEPQ [CHGB]
2. GVYMTDITPQGVAMRAGVLADDHL [PDZK1]
3. LLPLQREPLYNWQATKASLKERFA [BTBD1]
4. DLLFIVDTMLEEVENKEKDSNMPH [CEP70]
5. DKVSDGVTKSPEKRSSLPRPSSIL [MAP2]

[5.46, 3.54, 2.8, 2.29, 4.88]

Please state protein stability index for every sequence in the list that follows.
1. DTTRQVQRISCFQSTVKCLTVLQR [WDR41]
2. QEIATYRRLLEGEDAHLTQYKKEP [KRT17]
3. SLSNAVANTMEHLSLLDNNIPGNS [FBXO33]
4. EQSSCTMTPDIHELVENIKSVLKS [FAM189A2]
5. VLKDELQLYGDAPGEVVPSGESGL [TMEM40]
6. DGDDKVFRRAPSWRKRFRPREHHG [PPFIA4]
7. PCYDVRYAPSCAKCKKKITGEIMH [PDLIM7]

[2.42, 4.68, 3.64, 2.19, 5.14, 3.48, 3.04]

Working through the 2 sequences below one at a time, give protein stability index for each.
1. RAEIENLHRTFDPHFLRVPCWKIT [MOG]
2. QWGTVCDDDFSIHAAHVVCRELGY [LOXL2]

1: 2.27; 2: 2.47

# batch size: 8; output protein stability index per entry
1. FVKILKDFPEEDDPTNWLRCYYYE [NCF4]
2. KNHVGKPLLKMDLNSEQAEQLERI [FAM98B]
3. LAAVAWVGQQVHNLLLTYLIVTSL [ARL6IP1]
4. YAIKRSKKPLAGSVDEQNALREVY [WEE1]
5. AYDYAKEVNSAEELEGLIADPDEM [FEM1C]
6. QLSAPHCKKLSLELGGKNPAIIFE [ALDH8A1]
7. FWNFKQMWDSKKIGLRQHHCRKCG [WDFY2]
8. ADSFESSDSLLQSWNSQSSLLDVQ [ETS2]

1: 2.25; 2: 4.8; 3: 3.32; 4: 3.3; 5: 5.68; 6: 2.8; 7: 2.34; 8: 4.38

I'd like to know its protein stability index. The sequence in question is ASRTSTIFLNGNRERPLNVFCDME [TNXB] 3.09

====

test: protein stability index of a GFP-peptide fusion (GPS, HEK-293T) (PSI 1-6); higher = more stable; details: treatment: MLN4924 1 uM, 8 h; c terminus: a fixed tail appended
Decide by protein stability index: equal to or exceeding 5 means Met, less means Not met.

sequence.content	label
WASTSPGTDLPLSEIPRGVRVALD [TRIM15]	Not met

In plain terms: is recorded protein stability index at least 5 for EELNKEVASNSELVQSSRSEVTEL [KRT16] ? Met

Now give it for GRAGAVGTPGERGPPGPPGPPGPP [EMID1] too. Not met

Repeat for the following sequence: MSQPRTPEQALDTPGDCPPGRRDE [TMEM175] Met

Input RDYAPPSRGYAYRDNGHSNRDEHS [RBMY1A1] Not met

How about this sequence: RKKRLLDRKVLLKSDSPTGDVLLD [GOLPH3L] Not met

====

Exercise: state measured protein stability index for each of the sequences provided.
assay: protein stability index of a GFP-peptide fusion (GPS, HEK-293T) (PSI 1-6); higher = more stable; conditions: treatment: DMSO; c terminus: a fixed tail appended
Give bare numbers.

# example entries with known answers
sequence.content	measured.number
LEAQVESLKEELMCLKKNHEEEVS [KRT36]	5.47
SNHSWNTQTWCTQSWNNQAWNSPF [NANOGP8]	2.24
KHGKRKRGRPRKLSKEYWDCLEGK [ELF3]	4.18
HLVQHQRIHSGEKPYECNECGKAF [ZNF232]	3.65
MLSWILRINLVAAIFSAPAFPAAV [PSD2]	3.23
KYLKKREDSIPLRGLSQNLFSNSD [SASS6]	3.15
FGGQNAHNQIAIYAHQPRTADEIP [FUT8]	3.43
TPRSPEGTTEAATQDGKEQPELPC [PXN]	5.38
TGFLIIILAIIAKEGDCAPEEKIW [MAGEA6]	2.93
RSHPDNAIPIKSWFSDPSDTALLN [CTDNEP1]	3.73

Provide protein stability index values for the following items, in order.
1. QVITQTGVPGQPLNFKAEPESETS [PTPRD]
2. LLRLSKHGPGHETPMTIPEFFRES [ACSBG2]
3. RPSSILPPRRGVSGDRDENSFSLN [MAP2]
4. PGHIGPPGPTGPKGISGHPGEKGE [EMID1]
5. VVLPGAVSLRYSGATAASETLSGH [ADAMTS4]
6. IMDRFDCQYLMATFVNVYIASFIR [CDS2]
7. EAAGSFTSSLAQPGAYYPYERTLG [IRX6]
8. KQLEPLVAPLADGKVAVGQDDLTV [VPS39]

1: 5.18; 2: 2.73; 3: 4.67; 4: 5.59; 5: 2.95; 6: 3.42; 7: 3.24; 8: 5.14

====

assay: protein stability index of a GFP-peptide fusion (GPS, HEK-293T) (PSI 1-6); higher = more stable; conditions: treatment: MLN4924 1 uM, 8 h; c terminus: a fixed tail appended
Response key: met means protein stability index >= 3; not met means protein stability index < 3.

Some solved entries appear below for comparison.
sequence.content	label
FSDDCDLPSAQDINRLVGLQNTYM [GLT8D2]	met
ADIPQDQLVVMHPTPQVDELDILP [BTBD10]	met
RDRNLLQEDKALWEEEKALWVEER [CCDC70]	met
LEAQVESLKEELMCLKKNHEEEVS [KRT36]	met
ITCVSGAIVDLISRQYDKFLTHFI [FBXO33]	met

For this sequence, is measured protein stability index 3 or higher? RPRYKADVPDLQSVCSCTCYRSQD [KCNK9] met

Follow-up entry: KLEWAIDEDELRKSLSELVDDKFG [PSD2] met

Do the same for DDIKESLESEGKNSKKEEPQELLQ [ATE1] please met

Can you check DLSGIQTSDAAFLTQWKDSLVSLV [ZER1] next? not met

Input CQALDANLDANLAFASFTSGVVRI [TLE6] not met

One more sequence: LLPLQREPLYNWQATKASLKERFA [BTBD1] not met

Subsequent entry: HLRATEKMKTRELHRESSNFDSIY [HDAC6] met

====

So I've got a bunch of sequences here, and I need their protein stability index values.
test: protein stability index of a GFP-peptide fusion (GPS, HEK-293T) (PSI 1-6); higher = more stable; conditions: treatment: MLN4924 1 uM, 8 h; c terminus: a fixed tail appended
One number for each entry.

# count of solved cases: 4
sequence.content	protein stability index
QSIEYAGQQDQVKLHDFFSYLMDH [PPEF2]	2.92
ANSDRASIGRRRTELRRSGSSRSP [PLEKHN1]	5.2
VNSNKVVMSGVKCSGTELSLAHCR [LOXL2]	2.95
MPALEGAPHTPPLPRRPRKGSSEL [RNF208]	5.21

Items follow; give protein stability index for each.
1. AFVSNSPKLFCPKNRSFDIDAIYS [PLD5]
2. SSGKNVTLLVCGKKAYDYFQAKKI [PDZK1]
3. MPQYILREFKVTDARDGQSRTVRQ [PTPRD]
4. SSSYSPETFRQQFRQFGYQDSPGP [ZNF396]
5. SLCNLEESITSAGRDDLESFQLEI [FAM98B]

2.51
2.57
4.18
3.24
3.45

Fill in protein stability index for each of the 6 sequences listed.
1. KLEEVVNKKHGEAEKKKPKTQIVC [ZC3H15]
2. PVSASRSSLDLSYYPTSSSTSFMS [EMD]
3. SLSNAVANTMEHLSLLDNNIPGNS [FBXO33]
4. GKPLIPPMNRRNILVMKHNYSQDA [NETO1]
5. YTGMFTSSPDLDDMKLIILANRLC [RHOBTB2]
6. LPKISDPNFVKDLEEDLYELFKKD [PI4K2A]

4.63
3.38
3.94
3.31
2.7
3.88
